- experimentalProtocol: qHTS RealTime-Glo MT Cell Viability Assay in HEK293 cells - 0 hour (AID 1224880); note: top concentration of the series differs between compounds; nearly all actives have a fitted effect of over 45% in size
- experimentalSetup: RealTime-Glo luminescence; series mostly up to 76.8 µM
Results filed as inconclusive are left out. Active and inactive are the calls of the source. Calls come from the whole dose curve; as a rule, active = well fitted cell-killing curve with a large enough effect in the repeat runs; inconclusive = weak or mixed curves, or effect the other way; inactive = flat fitted curve, though single readings scatter.
measuredProperty: activity change, negative = cytotoxicity

CC(C)(O)c1ccccc1CC[C@@H](SCC1(CC(=O)O)CC1)c1cccc(/C=C/c2ccc3ccc(Cl)cc3n2)c1 :: inactive
CC(Cl)C(Cl)Cl (stereo not given) :: inactive
c1ccc(COCc2ccccc2)cc1 :: inactive
COc1cc2c(N3CCN(C(=O)Nc4ccc(OC(C)C)cc4)CC3)ncnc2cc1OCCCN1CCCCC1 :: inactive
CC(C)(C)C(=O)O :: inactive

State the recorded activity change, negative = cytotoxicity for every item in the following list.
1. CO[Si](C)(OC)OC
2. CCC(C)=O
3. Nc1ccc(Cl)cc1[N+](=O)[O-]
4. O=C(CCCCCCC(=O)Nc1ccccc1)NO
5. CCCCC/C(=C\c1ccccc1)CO
6. CCC(C(=O)OCCOCCN(CC)CC)c1ccccc1 (stereo not given)

**Result**
1. inactive
2. inactive
3. inactive
4. inactive
5. inactive
6. inactive

State the recorded activity change, negative = cytotoxicity for every item in the following list.
1. N#C/C(=C1\SCC(c2ccccc2Cl)S1)n1ccnc1 (stereo not given)
2. C=CCOC(=O)/C=C\C(=O)OCC=C
3. CCOC(=O)c1ccccc1OC
4. C/C=C/C=C/CCCCCCCO
5. CC(=O)[C@H]1CC[C@H]2[C@@H]3C=CC4=CC(=O)CC[C@@]4(C)[C@@H]3CC[C@]12C
6. ON(Cc1ccccc1)Cc1ccccc1

**Result**
1: inactive; 2: inactive; 3: inactive; 4: inactive; 5: inactive; 6: inactive
